- assay-system: UniProt:P20272
- Sequence (P20272 whole entry): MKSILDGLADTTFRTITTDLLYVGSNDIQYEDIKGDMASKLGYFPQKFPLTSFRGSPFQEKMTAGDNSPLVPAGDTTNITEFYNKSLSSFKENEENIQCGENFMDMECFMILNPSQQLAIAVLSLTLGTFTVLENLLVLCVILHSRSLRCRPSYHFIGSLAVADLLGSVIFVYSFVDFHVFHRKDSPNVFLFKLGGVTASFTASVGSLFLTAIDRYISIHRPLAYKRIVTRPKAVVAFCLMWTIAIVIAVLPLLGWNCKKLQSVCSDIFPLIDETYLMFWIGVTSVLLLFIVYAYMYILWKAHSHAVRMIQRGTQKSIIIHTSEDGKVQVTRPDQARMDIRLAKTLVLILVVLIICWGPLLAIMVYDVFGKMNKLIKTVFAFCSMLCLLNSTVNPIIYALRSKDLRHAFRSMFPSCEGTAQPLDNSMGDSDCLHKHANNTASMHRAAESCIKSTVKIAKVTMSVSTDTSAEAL
- method-notes: Cannabinoid receptor 1 dependent activity of compound was evaluated by using [35S]GTP-gamma-S-binding studies
property-name: EC50 (µM)
Give bare numbers, in µM.

CCCCC/C=C\C/C=C\C/C=C\C/C=C\CCCCOC(=O)[C@@H](O)CO    39.8

Bench note: what EC50 did CCCCC/C=C\C/C=C\C/C=C\C/C=C\CCCCOC(=O)[C@H](O)CO show?
25.1
